# credit: PubChem BioAssay (NCI)

- Test system: UO-31 renal
- PROCEDURE DETAILS: NCI tumour cell line growth inhibition, 48 h
Each entry below carries its reported TGI.

Take a look at these entries with their results.
# COMPOUND, TGI
rows = [
    ("CCc1ccc(CCN2CCCCC2)nc1", "> 100 µM"),
    ("CC(=O)NC1=C(NCCC(C)C)C(=O)c2ccccc2C1=O", "> 50 µM"),
    ("C(/c1ccco1)=c1/nc(-c2ccccc2)n2c1nc1ccccc12", "> 100 µM"),
]

Now look at this entry.
TGI for COc1ccc2c3c1C(=O)CCCC3CO2 (centres undefined) is > 100 µM

* * *

Each entry below carries its reported TGI.
- System: BT-549 breast
- PROCEDURE DETAILS: NCI tumour cell line growth inhibition, 48 h

Take a look at these entries with their results.
# COMPOUND, TGI
rows = [
    ("Cc1cc(N(CCC#N)CCC#N)ccc1/C(N=Nc1ccc(Cl)cc1)=N\\NC(=O)c1ccccc1", "> 100 µM"),
    ("Cc1cn(C2CC(n3cc(Cn4cc(I)c(=O)[nH]c4=O)nn3)C(CO)O2)c(=O)[nH]c1=O (stereo not given)", "> 100 µM"),
    ("O=C1OCC(O)=C1C(c1ccc(Cl)cc1)c1cc2c(cc1O)OCO2 (stereo not given)", "> 100 µM"),
    ("COc1c(C)c(C/C=C(\\C)CCCCO[Si](c2ccccc2)(c2ccccc2)C(C)(C)C)c(OC)c(OC)c1OC", "> 46.4 µM"),
]

Now look at this entry.
TGI for COc1ccc(C(OCC2OC(n3cc(C)c(=O)[nH]c3=O)CC2n2cc(Cn3cc(I)c(=O)[nH]c3=O)nn2)(c2ccccc2)c2ccccc2)cc1 (stereo not given) is > 100 µM

* * *

- System: SK-MEL-2 melanoma
- PROCEDURE DETAILS: NCI tumour cell line growth inhibition, 48 h
ASSAY READOUT: TGI

Take a look at these entries with their results.
# COMPOUND, TGI
rows = [
    ("COc1cc(CNc2cnc3cc(N)cc(N)c3n2)cc(OC)c1", "> 100 µM"),
    ("COc1ccc2c3c1C(=O)CCCC3CO2 (stereo unspecified)", "> 100 µM"),
    ("O=C1C(=O)N(c2ccc(Cl)cc2Cl)C(=O)C(=O)C1c1nc2ccccc2s1", "> 100 µM"),
    ("C/C(CC(=O)CCC(=O)Nc1cccc(C(F)(F)F)c1)=N\\NC(=O)NN", "> 100 µM"),
    ("NC(=O)c1sc(-n2cnc3ccccc32)cc1OCc1ccccc1Br", "> 25 µM"),
]

Now look at this entry.
TGI for `CNS(=O)(=O)NNS(=O)(=O)c1ccc2ccccc2c1` is > 100 µM

* * *

Each entry below carries its reported TGI.
- Test system: 786-0 renal
- PROCEDURE DETAILS: NCI tumour cell line growth inhibition, 48 h

# COMPOUND, TGI
measured = [
    ("Cc1cc(=O)[nH]c(NN2C(Cl)C(=O)C2c2ccccc2O)n1 (stereo not given)", "> 100 µM"),
    ("CC(N)Cc1ccc(C(=O)Cl)cc1 (stereo not given)", "> 100 µM"),
    ("COc1ccc(/C=C2\\CCC(C)C3=C2NC(=S)NC3c2ccc(OC)c(OC)c2)cc1OC (stereo not given)", "> 31.6 µM"),
    ("C#Cc1ccc(-n2c(/C=C/c3ccc(C(F)(F)F)cc3)nc3ncccc3c2=O)cc1", "3.7 µM"),
]

Now look at this entry.
Param item: `C[n+]1c2ccccc2c(/C=N\NS(=O)(=O)c2ccc(O)c(C(=O)O)c2)c2ccccc21` ; param system: 786-0 renal; output TGI: > 100 µM

* * *

Each entry below carries its reported TGI.
- Tested on: ACHN renal
- PROCEDURE DETAILS: NCI tumour cell line growth inhibition, 48 h

Take a look at these entries with their results.
# COMPOUND, MEASURED RESULT
data = [
    ("NC(=O)c1sc(-n2cnc3ccccc32)cc1OCc1ccccc1Br", "> 25 µM"),
    ("COc1cc(/C=N/NC(=O)c2ccc(C(F)(F)F)nc2Nc2ccc(Cl)cc2C)ccc1O", "13.7 µM"),
]

Param item: CC(N)Cc1ccc(C(=O)Cl)cc1 (stereo not given) ; param system: ACHN renal; output TGI: > 100 µM

Param item: `Cn1cnc([N+](=O)[O-])c1Sc1nnc(-c2cccnc2)n1C` ; param system: ACHN renal; output TGI: 36.7 µM

Param item: NC(Cc1c[nH]c2c(O)cccc12)C(=O)O (stereo not given) ; param system: ACHN renal; output TGI: > 100 µM

Param item: `Cc1nc(C(N)=S)sc1/C(CC(=O)C(=O)Nc1cccc2ccc(O)cc12)=N\NC(=O)c1ccncc1` ; param system: ACHN renal; output TGI: > 100 µM

* * *

- Test system: NCI-H23 lung
- PROCEDURE DETAILS: NCI tumour cell line growth inhibition, 48 h
ASSAY READOUT: GI50

# MOLECULE, SYSTEM TESTED, ASSAY READOUT, MEASURED RESULT
measured = [
    ("CC1(C)CCc2c(c3c(c4c(=O)c(O)c(-c5ccc(O)cc5)oc24)OC(C)(C)CC3)O1", "NCI-H23 lung", "GI50", "75.7 µM"),
    ("CCCCCN(CCCCC)CCCNc1c2c(nc3ccc(Cl)cc13)CCCC2", "NCI-H23 lung", "GI50", "2.12 µM"),
    ("CCCCOC(=O)C1OC(O[C@H]2CCC3(C)C(CCC4(C)C3CC=C3C5CC(C)(C)CCC5(C(=O)O)CC[C@]34C)C2(C)C)C(OC2OC(CO)C(O)C(O)C2O)C(OC2OC(CO)C(O)C(O)C2O)C1O (stereo not given in full)", "NCI-H23 lung", "GI50", "22.8 µM"),
    ("C=C(CN1CCN(c2ccc(Cl)cc2F)CC1)c1ccc(C(=O)Nc2ccccc2N)cc1", "NCI-H23 lung", "GI50", "3.13 µM"),
]

Now look at this entry.
Param item: `O=S(=O)(NC1=NCCN1C(=S)SN1CCn2c1nsc2=S)c1ccc(OC(F)(F)F)cc1` ; param system: NCI-H23 lung; output GI50: 12.7 µM

* * *

- Test system: HOP-92 NSCLC
- PROCEDURE DETAILS: NCI tumour cell line growth inhibition, 48 h
Outcome label depends on TGI relative to 30 µM: at/above gives Condition met, below gives Condition not met.

# COMPOUND, SYSTEM TESTED, CLASS ASSIGNMENT
data = [
    ("COc1ccc(C(=O)Cn2c(C(=O)c3ccccc3)nc(-c3ccc(OC)cc3)c2-c2ccc(OC)cc2)cc1", "HOP-92 NSCLC", "Condition met"),
    ("CC(=O)NC1=C(NCCC(C)C)C(=O)c2ccccc2C1=O", "HOP-92 NSCLC", "Condition met"),
    ("CCC1(O)CC2CC(=O)OC2C1O (stereo unspecified)", "HOP-92 NSCLC", "Condition met"),
    ("Clc1cc2nsnc2c(Cl)n1", "HOP-92 NSCLC", "Condition met"),
    ("COc1cc([C@@H]2c3cc4c(cc3[C@@H](Nc3ccc([N+](=O)[O-])cc3C(=O)c3ccccc3)[C@H]3COC(=O)[C@H]23)OCO4)cc(OC)c1OC", "HOP-92 NSCLC", "Condition met"),
    ("CCOC(=O)C(NC(C)=O)(Nc1ccc(F)cc1)C(F)(F)F (stereo unspecified)", "HOP-92 NSCLC", "Condition met"),
    ("CCOC(=O)N1CCC2(CC1)C[C@](C)(C(C)=O)C(C)O2 (stereo partly specified)", "HOP-92 NSCLC", "Condition met"),
    ("O=C(O)CCc1coc2ccc(O)cc12", "HOP-92 NSCLC", "Condition met"),
]

As a next step, examine the compound that follows.
Determine whether measured TGI meets or exceeds 30 µM for COC1CCC2C(NS(=O)(=O)c3ccc(C)cc3)CCCC2O1 (stereo unspecified) (tested in a mixture with another compound)
Condition not met

* * *

- System: IGROV1 ovarian
- PROCEDURE DETAILS: NCI tumour cell line growth inhibition, 48 h
Each entry below carries its reported TGI.

Take a look at these entries with their results.
# MOLECULE, TGI
records = [
    ("O=C(O)CSc1ccc([N+](=O)[O-])cc1[N+](=O)[O-]", "> 100 µM"),
    ("O=C(CC1(O)C(=O)Nc2c(Cl)cc(Cl)cc21)c1ccc(Br)cc1Br (centres undefined)", "34.7 µM"),
]

Param item: `O=C(CCC(=O)c1ccc(Cl)cc1)NO` ; param system: IGROV1 ovarian; output TGI: > 100 µM

Param item: `CCC[C@@H](O)C[C@@H]1CCC[C@H](C[C@@H](O)CC)N1C` ; param system: IGROV1 ovarian; output TGI: > 100 µM
